# measurement_description: M. tuberculosis growth inhibition, HTS (AID 1259417);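 also: bacteria grown with compound for 5 days at 37 °C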
# experimental_context: M. tuberculosis DsRed fluorescence growth inhibition; concentration not given here
The campaign covered roughly 1,100 compounds. About 760 (69%) were called active. No rule for the calls is given here. The set was probably picked from earlier hits. The list shows a part of the results.
Assign a class; possible classes are 1 (yes) for active, 0 (no) for inactive

# input Which result was noted for this compound in the test: `O=C(Nc1nnc(-c2ccc3c(c2)CCCC3)o1)c1ccccc1F`
# output 1 (yes)

# input What call does the record list for `O=C(CC12CC3CC(CC(C3)C1)C2)Nc1ccc(I)cc1F` ?
# output 1 (yes)

# input Outcome? `CCOC(=O)c1cnc2ccc(OC)cc2c1Nc1ccc2c(c1)OCCO2`
# output 1 (yes)

# input Can you look up the reported call for `CCOC(=O)COc1ccc2c(=O)c(-c3ccc(OC)c(OC)c3)c(C(=O)OCC)oc2c1` for me?
# output 1 (yes)

# input What is the recorded call for this compound in the test? CC1CCCN(c2ccc([N+](=O)[O-])s2)C1 (stereo unspecified)
# output 1 (yes)

# input Which result was noted for this compound in the test: `O=C(Nc1nnc(-c2ccc(Cl)cc2)o1)c1ccccc1F`
# output 1 (yes)

# input Field: outcome | Entry: `COC(=O)CSc1nc2c(c(-c3ccc(C)o3)c1C#N)CCCC2`
# output 0 (no)

# input Recorded call for `CCOC(=O)COc1ccc2c(C)c(CC(=O)OC)c(=O)oc2c1` ?
# output 1 (yes)

# input How did this test come out for `CCOC(=O)CSc1nc2c(c(-c3ccc(C)o3)c1C#N)CCCC2` ?
# output 0 (no)

# input What did this assay record as the result for `CC1(C)C=Cc2c(nc3ccccc3c2NCc2ccccc2)C1` ?
# output 1 (yes)

# input Write down the call the test reported for this compound. Item: `Cc1ccc(-c2nn(-c3ccccc3)cc2CNCc2ccccc2)cc1`
# output 1 (yes)
